Tested on: Candida krusei AR 397
Experiment: MIC, YPD broth, CDC and FDA AR Candida isolate panel
Type: cell-based
Settings: Table 9 top part: titrations from 1.56 to 100 μg/mL
Protocol: MIC determination. MICs were measured using peptides with 95% purity. For bacterial studies, cation-adjusted Mueller Hinton (MH) broth was used as the growth medium whereas Yeast Peptone Dextrose (YPD; 10 g/L yeast extract, 20 g/L peptone, 20 g/L dextrose) was used for Candida spp. and other yeast. […]
Ends that are not written are not given here.
Field: MIC (μg/mL) Candida krusei AR 397. Provide a value for each of the substances that follow.
Provide a numeric answer, followed by its unit.

Bench note, Candida krusei AR 397: entry TVKALVKWILKTVAKFA [STIP3-19, TVKALVKWILKTVAKFA] , its MIC (μg/mL) Candida krusei AR 397 = 100 µg/mL

Bench note, Candida krusei AR 397: entry TVKGLVKWILNVVKKFA [STIP3-14, TVKGLVKWILNVVKKFA] , its MIC (μg/mL) Candida krusei AR 397 = 12.5 µg/mL

Bench note, Candida krusei AR 397: entry TVKALVKWILKTVAKFW [STIP3-21, TVKALVKWILKTVAKFW] , its MIC (μg/mL) Candida krusei AR 397 = 100 µg/mL

Bench note, Candida krusei AR 397: entry TVGGLVKWILDTVKKFA [STIP3-1, TVGGLVKWILDTVKKFA] , its MIC (μg/mL) Candida krusei AR 397 = 25 µg/mL

Bench note, Candida krusei AR 397: entry TVKGLVKWILNVVKKFA-NH2 [STIP3-30, TVKGLVKWILNVVKKFA-NH2] , its MIC (μg/mL) Candida krusei AR 397 = 12.5 µg/mL

Bench note, Candida krusei AR 397: entry TVGGLVKWILKTVKKFA-NH2 [STIP3-29, TVGGLVKWILKTVKKFA-NH2] , its MIC (μg/mL) Candida krusei AR 397 = 50 µg/mL

Bench note, Candida krusei AR 397: entry TVGGLVKWILATVKKFA [STIP3-2, TVGGLVKWILATVKKFA] , its MIC (μg/mL) Candida krusei AR 397 = 50 µg/mL

* * *

Field: MIC S. aureus ATCC BAA 2313 (XI). Provide a value for each of the substances that follow.
system: S. aureus ATCC BAA-2313 (MRSA SCCmec type XI); assay: MIC, broth dilution; format: cell-based, Staphylococcus aureus; conditions: Table 5; STIP3 variants, highest concentration 100 μg/mL
Ends that are not written are not given here.
Express your answer in µg/mL, writing the number without its unit.

Please fill in: MIC S. aureus ATCC BAA 2313 (XI) reported for TVKGLVKWILATVKKFA [STIP3-16, TVKGLVKWILATVKKFA] = 100

Please fill in: MIC S. aureus ATCC BAA 2313 (XI) reported for TVGGLVKWILKAVKKFA [STIP3-13, TVGGLVKWILKAVKKFA] = 25

Please fill in: MIC S. aureus ATCC BAA 2313 (XI) reported for TVGGLVKWILNTVKKFA [STIP3-4, TVGGLVKWILNTVKKFA] = 100

Please fill in: MIC S. aureus ATCC BAA 2313 (XI) reported for TVGGLVKWILKTVKKFA [STIP3-3, TVGGLVKWILKTVKKFA] = 50

Please fill in: MIC S. aureus ATCC BAA 2313 (XI) reported for TVGGLVKWILAAVKKFA [STIP3-12, TVGGLVKWILAAVKKFA] = 25

Please fill in: MIC S. aureus ATCC BAA 2313 (XI) reported for TVRALVRWILRTVARFA [STIP3-23, TVRALVRWILRTVARFA] = 25

Please fill in: MIC S. aureus ATCC BAA 2313 (XI) reported for TVKGLVKWILNVVKKFA [STIP3-14, TVKGLVKWILNVVKKFA] = 12.5

Please fill in: MIC S. aureus ATCC BAA 2313 (XI) reported for TVGGLVKWILKTVKKFA-NH2 [STIP3-29, TVGGLVKWILKTVKKFA-NH2] = 6.25

Please fill in: MIC S. aureus ATCC BAA 2313 (XI) reported for TVGGLVKWILDTVKKFW [STIP3-6, TVGGLVKWILDTVKKFW] = 12.5

Please fill in: MIC S. aureus ATCC BAA 2313 (XI) reported for TVGVLVKWILDTVKKFA [STIP3-8, TVGVLVKWILDTVKKFA] = 100

Please fill in: MIC S. aureus ATCC BAA 2313 (XI) reported for TVGGLVKWILDTFKKFA [STIP3-11, TVGGLVKWILDTFKKFA] = 100

Please fill in: MIC S. aureus ATCC BAA 2313 (XI) reported for TVRALVKWILRTVAKFA [STIP3-20, TVRALVKWILRTVAKFA] = 50

Please fill in: MIC S. aureus ATCC BAA 2313 (XI) reported for TVKGLVKWILNVVKKFA-NH2 [STIP3-30, TVKGLVKWILNVVKKFA-NH2] = 25

* * *

system: S. aureus ATCC BAA-42 (MRSA SCCmec type VI); assay: MIC, broth dilution; format: cell-based, Staphylococcus aureus; settings: Table 5; STIP3 variants, highest concentration 100 μg/mL
Ends that are not written are not given here.
Field: MIC S. aureus ATCC BAA 42 (VI). Provide a value for each of the substances that follow.

Please fill in: MIC S. aureus ATCC BAA 42 (VI) reported for TVRALVKWILRTVAKFA [STIP3-20, TVRALVKWILRTVAKFA] = 25 mg/L

Please fill in: MIC S. aureus ATCC BAA 42 (VI) reported for TVKGLVKWILATVKKFA [STIP3-16, TVKGLVKWILATVKKFA] = 50 mg/L

Please fill in: MIC S. aureus ATCC BAA 42 (VI) reported for TVKGLVKWILNVVKKFA-NH2 [STIP3-30, TVKGLVKWILNVVKKFA-NH2] = 25 mg/L

Please fill in: MIC S. aureus ATCC BAA 42 (VI) reported for TVGGLVKWILNTVKKFA [STIP3-4, TVGGLVKWILNTVKKFA] = 50 mg/L

Please fill in: MIC S. aureus ATCC BAA 42 (VI) reported for TVGGLVKWILDTVKKFI [STIP3-5, TVGGLVKWILDTVKKFI] = 12.5 mg/L

Please fill in: MIC S. aureus ATCC BAA 42 (VI) reported for TVGGLVKWILDWVKKFA [STIP3-10, TVGGLVKWILDWVKKFA] = 25 mg/L

Please fill in: MIC S. aureus ATCC BAA 42 (VI) reported for TVGGLVKWILKTVKKFA-NH2 [STIP3-29, TVGGLVKWILKTVKKFA-NH2] = 6.25 mg/L

Please fill in: MIC S. aureus ATCC BAA 42 (VI) reported for TVGGLVKWILDVVKKFA [STIP3-9, TVGGLVKWILDVVKKFA] = 25 mg/L

Please fill in: MIC S. aureus ATCC BAA 42 (VI) reported for TVGVLVKWILDTVKKFA [STIP3-8, TVGVLVKWILDTVKKFA] = 100 mg/L

Please fill in: MIC S. aureus ATCC BAA 42 (VI) reported for TVKALVKWILKTVAKFA [STIP3-19, TVKALVKWILKTVAKFA] = 50 mg/L

Please fill in: MIC S. aureus ATCC BAA 42 (VI) reported for TVKALVKWILKTVAKFW-NH2 [STIP3-31, TVKALVKWILKTVAKFW-NH2] = 50 mg/L

Please fill in: MIC S. aureus ATCC BAA 42 (VI) reported for TVGGLVKWILATVKKFA-NH2 [STIP3-28, TVGGLVKWILATVKKFA-NH2] = 12.5 mg/L

Please fill in: MIC S. aureus ATCC BAA 42 (VI) reported for TVGGLVKWILATVKKFA [STIP3-2, TVGGLVKWILATVKKFA] = 50 mg/L

Please fill in: MIC S. aureus ATCC BAA 42 (VI) reported for TVGGLVKWILAAVKKFA [STIP3-12, TVGGLVKWILAAVKKFA] = 25 mg/L

Please fill in: MIC S. aureus ATCC BAA 42 (VI) reported for TVGGLVKWILDTVKKFA [STIP3-1, TVGGLVKWILDTVKKFA] = 100 mg/L

Please fill in: MIC S. aureus ATCC BAA 42 (VI) reported for TVRALVRWILRTVARFA [STIP3-23, TVRALVRWILRTVARFA] = 50 mg/L

* * *

tested on: Candida duobushaemulonii AR 392; assay: MIC, YPD broth, CDC and FDA AR Candida isolate panel; assay type: cell-based; conditions: Table 9 below the line: only 200 or 100 μg/mL tested; values reported as 100 are ≤100 μg/mL
Ends that are not written are not given here.
recorded endpoint: MIC (μg/mL) Candida duobushaemulonii AR 392

Bench note, Candida duobushaemulonii AR 392: entry TVGGLVKWILKAVKKFA [STIP3-13, TVGGLVKWILKAVKKFA] , its MIC (μg/mL) Candida duobushaemulonii AR 392 = ≤ 100 µg/mL
